tested on: CAKI-1 renal; test: NCI-60 one-dose screen, 48 h (100 = growth as untreated, 0 = no growth, -100 = all killed); details: 10 µM unless noted
Compounds without any hit were thinned out: in the full panel of roughly 83,000, 20% have a hit.
Label criterion met when growth is at or above 90%; anything below gets criterion not met.

Given CC(=O)C1CC(C)CCC1C(C)C (stereo not drawn) , state whether its growth is at least 90%.
criterion met

Determine whether this molecule has growth no lower than 90%: CN(C)C/C=C/C(=O)Nc1cc2c(Nc3ccc(F)c(Cl)c3)ncnc2cc1O[C@H]1CCOC1
criterion not met

In plain terms: is recorded growth at least 90% for C/C(=C(/c1ccc(Cl)cc1)c1ccc(OCCN2CCCCCC2)cc1)c1ccccc1 ?
criterion met

Textbook exercise: given the entry COc1cc2ncnc3c2cc1OCCCCCN(C)Cc1ccc(Br)cc1N3 , state whether its growth is greater than or equal to 90%.
criterion not met

Entry CO[C@H]1C[C@@H]2CC[C@@H](C)[C@@](O)(O2)C(=O)C(=O)N2CCCC[C@H]2C(=O)O[C@H]([C@H](C)C[C@@H]2CC[C@@H](OCCO)[C@H](OC)C2)CC(=O)[C@H](C)/C=C(\C)[C@@H](O)[C@H](OC)C(=O)[C@H](C)C[C@H](C)\C=C/C=C/C=C/1C : is its growth no less than 90%?
criterion not met

Could you tell me if the measured growth of O=C(CNc1nc2ccccc2s1)Nc1ccc(-c2nc3ccccc3s2)cc1 reaches 90% or more?
criterion met

Evaluate CCN(CC)CCN1C(=O)c2cccc3c(-c4ccc5c(c4)ncn5C4CCCCC4)ccc(c23)C1=O : growth at minimum 90%?
criterion not met

Say whether C=CC(=O)Nc1cccc(Nc2nc(Nc3ccc(N4CCN(C(C)=O)CC4)cc3OC)ncc2C(F)(F)F)c1 shows growth of 90% or more.
criterion not met

Kindly determine if growth recorded for CC(=O)OC1Oc2ccccc2-c2oc(=O)c(-c3cc4ccc(N(C)C)cc4oc3=O)cc21 (stereo not drawn) is above or exactly 90%.
criterion not met

Threshold query (growth >= 90%) on COc1ccc2c(c1OC)C(=O)O[C@@H]2[C@H]1c2c(c(C#CC#Cc3ccc(F)c(F)c3)c3c(c2OC)OCO3)CCN1C
criterion not met

Does the molecule Cc1nc(Nc2n[nH]c3c2CN(C(=O)N[C@H](CN(C)C)c2ccccc2)C3(C)C)c2sccc2n1 have recorded growth that is 90% or more?
criterion not met

Reported growth at or above 90%? Cc1csc(-c2nnc(Nc3ccc(Oc4ncccc4-c4ccnc(N)n4)cc3)c3ccccc23)c1
criterion not met

Is growth for FC(F)(F)c1ccc(CNc2ccc(Cc3c[nH]c4ncc(Cl)cc34)cn2)cn1 at or above 90%?
criterion not met

Test whether the molecule COc1ccc(/C(C)=C(\c2ccc(Cl)cc2)c2ccc(OCCN3CCCCCC3)cc2)cc1 records growth of 90% or higher.
criterion not met

Decide: is the reported value of growth for C#Cc1cccc(Nc2ncnc3cc4c(cc23)OCCOCCOCCO4)c1 equal to or greater than 90%?
criterion not met

Please check the record COc1ccc(Cc2cc(-c3ccccc3C)n[nH]c2=O)cc1 and state if its growth is at or above 90%.
criterion met

Entry CCN(CCN(C)C)C(=O)CNCc1cc(C(N)=O)ccn1 : is its growth no less than 90%?
criterion met

----------
test system: HCT-116 colon; test: NCI-60 one-dose screen, 48 h; conditions: 10 µM unless noted
About 83,000 compounds went through this panel and 20% of them were active in at least one assay; those are over-represented in the sample as a whole. Calls of active or inactive are those of the source. The calls were made as follows: active = growth percent below 10; inactive = the rest.
// one of active, inactive, no free text

What call does the record list for COCC(=O)NC/C=C/c1ccc2ncnc(Nc3ccc(Oc4ccc(C)nc4)c(C)c3)c2c1 ?
inactive

What outcome does the record of this test show for COc1ccc(-c2ccc3ncc4c(c3c2)n(-c2ccc(N3CCNCC3)c(C(F)(F)F)c2)c(=O)n4C)cn1 ?
active

Tell me the assay call for CC/C(=C(/c1ccc(Cl)cc1)c1ccc(OCCN2CCCCC2)cc1)c1ccc(Cl)cc1 please.
inactive

What outcome does the record of this test show for COc1ccc(-c2cc3c(C)nc(N)nc3n(C3CCC(OCCO)CC3)c2=O)cn1 (configuration not stated) ?
active

Given Cc1ccc2oc(=O)cc(-c3cc(-c4cc5ccccc5oc4=O)nc(N)c3C#N)c2c1 , state the outcome it received in this test.
inactive

I would be grateful if you could indicate the recorded call for O=C(Nc1ccc(Nc2ncnc3sc4c(c23)CCOC4)cc1)Nc1ccc(Cl)c(C(F)(F)F)c1 .
inactive

Recorded test call requested for CCc1nc2cc(F)c(/C=C/C(=O)NO)cc2c(=O)n1CCc1ccccc1
active

----------
Hi there, I'd appreciate the recorded growth for every entry that follows.
system: LOX IMVI melanoma; test: NCI-60 one-dose screen, 48 h (100 = growth as untreated, 0 = no growth, -100 = all killed); settings: 10 µM unless noted
About 83,000 compounds went through this panel and 20% of them were active in at least one assay; those are over-represented in the sample as a whole.
The figure you give is taken to be in %; do not add the unit.

Find the recorded growth belonging to C=C1C(=O)O[C@H]2[C@H]1CC/C(C=Nc1c(N)cc(C(F)(F)F)cc1C(F)(F)F)=C\CC[C@@]1(C)O[C@@H]21 and report it.
-87.5

Which value of growth has been reported for Cc1ccc(C(=O)Nc2ccc(CN3CCN(C)CC3)c(C(F)(F)F)c2)cc1C#Cc1cnc2cccnn12 in the records?
-94

What measured growth goes with C[N+](C)(CCOC(c1ccccc1)c1ccccc1)CC(=O)OCc1ccccc1 ?
101

Would you kindly share the measured growth for NC(=O)Nc1cc(-c2cccc(F)c2)sc1C(=O)N[C@H]1CCCNC1 ?
-75.2

Tell me the measured growth of Cc1cn(-c2cc(NC(=O)c3ccc(C)c(Nc4nccc(-c5cccnc5)n4)c3)cc(C(F)(F)F)c2)cn1 , please.
44.1

For the compound shown here, COCc1c(-c2ccc(NC(=O)Nc3cc(C(F)(F)F)ccc3F)c(F)c2)c2c(N)ncnn2c1CN1CCOCC1 , give the reported growth.
-81.7

// returns reported growth for input CCN(CCN(C)C)C(=O)CNCc1cc(C(N)=O)ccn1
99.5

Any idea what growth was measured for CC(C)(C)OC(=O)N1CCC(O)[C@@H](O[Si](c2ccccc2)(c2ccccc2)C(C)(C)C)[C@H]1/C=C/c1ccccc1 (some centres undefined) ?
61.4

Which measured growth value corresponds to Cc1cc2c(-c3nc4ccccn4c3NC3CCCCC3)c(O)c(O)cc2c(O)c1-c1c(C)cc2c(-c3nc4ccccn4c3NC3CCCCC3)c(O)c(O)cc2c1O ?
27.4

Fill in the blank: the reported growth of Cn1ccnc1C(=O)/C=C/c1ccc(CC(=O)Nc2ccc(Br)cc2)cc1 is ____.
7.81

# input compound: Cc1cc(O)cc(-c2c(-c3ccnc(-c4cccnc4)c3)cnn2C)c1 ; wanted: its growth
61.5

Which growth is listed for NN1C(=O)CSC1=S ?
98.6

For the compound Cn1cnc2c(F)c(Nc3ccc(Br)cc3Cl)c(C(=O)NOCCO)cc21 , what growth is on record?
27.6

growth for O=C(Nc1ccc(C2=NCCCN2)cc1)c1ccc(C(=O)Nc2ccc(C3=NCCCN3)cc2)nc1 ?
105

Which growth reading was recorded for the compound O=C(Cc1ccccc1)Nc1nnc(NC2CCN(c3nnc(NC(=O)Cc4ccccc4)s3)CC2)s1 ?
69.2

Requested field: growth. Item: CN1CCC(COc2cnc(-c3cccc(Cn4nc(-c5cccc(C#N)c5)ccc4=O)c3)nc2)CC1
34.2

Given the entry O=C(CNc1nnc(-c2ccc(Cl)cc2)o1)Nc1ccc(-c2nc3ccccc3s2)cc1 , report its measured growth.
-43.1

Tell me the measured growth of COc1cc(Nc2ncc(F)c(Nc3ccc4c(n3)N(COP(=O)(O)O)C(=O)C(C)(C)O4)n2)cc(OC)c1OC , please.
-69

// lookup growth for Cc1cc(C(=O)Nc2cc(Oc3ccc4nc(NC(=O)C5CC5)cn4n3)ccc2C)n(C)n1
-20.1

Bench note: what growth did COC(=O)[C@@H](C)CNS(=O)(=O)N(c1cc(C(F)(F)F)cc(C(F)(F)F)c1)C1CCN(Cc2ccc(F)cc2)CC1 show?
48.2

Param item = Nc1c2c(c(O)c3c1=C(CO)C=N3)=NCCS2 ; retrieve measured growth.
-89.5

Requested field: growth. Item: O=S1(=O)OC(c2ccc(O)c(Cl)c2)(c2ccc(O)c(Cl)c2)c2ccccc21
100

What does the record list as growth for Brc1ccc([I+]c2ccc(Br)cc2)cc1 ?
20.4

Look at this compound and give its reported growth. c1cn2cc(-c3ccc4cn[nH]c4c3)nc(Nc3ccc(N4CCOCC4)cc3)c2n1
56.4

What value of growth has been recorded for this entry: Cc1sc2c(c1C)c(=O)nc1c(-c3nc4ccccc4s3)n[nH]n12
93.3

Query (compound): C[C@H]1Oc2cc(cnc2N)-c2c(nn(C)c2C#N)CN(C)C(=O)c2ccc(F)cc21 ; field requested: growth
74.2

For the compound shown here, Nc1cc(C(F)(F)F)c(-c2cc(N3CCOCC3)nc(N3CCOCC3)n2)cn1 , give the reported growth.
-44.6

Name the recorded growth for OCCNC(=S)Nc1ccc(-c2nc(N3C[C@H]4CC[C@@H](C3)O4)c3cccn3n2)cc1 .
1.79

Tell me the measured growth of CC(C)c1cc(CNc2nc(Nc3cc(C4CC4)[nH]n3)cc(N3CCN(C)CC3)n2)on1 , please.
-58.4
